- targetDesc: Dihydroorotate dehydrogenase (quinone), mitochondrial (Plasmodium falciparum (isolate 3D7)) (UniProt Q08210)
- Sequence (Q08210 whole entry, looked up): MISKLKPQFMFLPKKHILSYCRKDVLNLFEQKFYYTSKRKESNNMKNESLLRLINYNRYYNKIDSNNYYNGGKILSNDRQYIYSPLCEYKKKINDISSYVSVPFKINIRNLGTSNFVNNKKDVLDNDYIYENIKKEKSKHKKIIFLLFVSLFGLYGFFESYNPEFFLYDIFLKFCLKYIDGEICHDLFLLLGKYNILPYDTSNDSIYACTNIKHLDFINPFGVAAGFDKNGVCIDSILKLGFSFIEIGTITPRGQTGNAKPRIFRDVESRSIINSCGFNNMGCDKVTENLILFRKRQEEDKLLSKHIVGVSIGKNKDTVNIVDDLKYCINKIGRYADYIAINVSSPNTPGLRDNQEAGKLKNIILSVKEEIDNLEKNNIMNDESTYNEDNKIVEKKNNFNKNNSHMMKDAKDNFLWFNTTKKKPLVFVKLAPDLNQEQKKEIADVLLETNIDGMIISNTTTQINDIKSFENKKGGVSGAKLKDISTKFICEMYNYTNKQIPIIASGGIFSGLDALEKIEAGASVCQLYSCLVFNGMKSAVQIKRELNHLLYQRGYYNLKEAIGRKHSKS
- measurementNotes: PfDHODH enzyme inhibitors, primary screen, biochemical, C-terminal His tag, absorbance 600 nm (AID 1175);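 note: recombinant parasite enzyme with a five histidine tag at its C terminus; test concentration not given here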
- measurementContext: DCIP absorbance 600 nm, higher = more signal, called active from +8 up or from −8 down
measuredProperty: composite z-score
// response body must contain only the number

Cc1ccc(S(=O)(=O)OC[C@H]2CN3[C@H](c4ccc(Br)cc4)[C@@H](C)CC[C@H]3C(=O)O2)cc1 has a reported composite z-score of -0.303

CC(C)CON=C1[C@H]2CCn3c(=O)n(Cc4cc5c(cc4Cl)OCO5)c(=O)n3[C@H]2[C@H](O)[C@@H]2O[C@H]12 has a reported composite z-score of -2.76

C#CCCCON=C1C[C@@H](O)[C@@H](O)[C@@H]2[C@@H]3C(=O)N(c4ccc(F)cc4F)C(=O)[C@@H]3CC[C@H]12 has a reported composite z-score of -0.31

CC(C)=CCCC(C)=CCON=C1C[C@@H](O)[C@@H](O)[C@@H]2[C@@H]3C(=O)N(C(C)(C)C)C(=O)[C@@H]3CC[C@H]12 has a reported composite z-score of -0.108

CCOC(=O)NN=C1C[C@@H](O)[C@@H](O)[C@@H]2[C@@H]3C(=O)N(Cc4ccccc4)C(=O)[C@@H]3CC[C@H]12 has a reported composite z-score of -0.451

O=C(NN=C1C[C@@H](O)[C@@H](O)[C@@H]2[C@@H]3C(=O)N(Cc4ccccc4)C(=O)[C@@H]3CC[C@@H]12)OCc1ccccc1 has a reported composite z-score of -1.65

COC(=O)CC=C[C@@H](C)[C@@H](C=NO[C@H](C)c1cn([C@@H]2COC[C@H]2O)nn1)NS(=O)(=O)c1ccc(C)cc1 has a reported composite z-score of -0.753

====

- targetDesc: Alpha-bungarotoxin (Bungarus multicinctus) (UniProt P60615)
- Sequence (P60615 whole entry, looked up): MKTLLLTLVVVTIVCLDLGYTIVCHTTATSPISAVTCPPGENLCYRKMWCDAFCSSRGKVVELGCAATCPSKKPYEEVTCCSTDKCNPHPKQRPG
- measurementNotes: alpha-bungarotoxin binders on microarray, profiling panel, artefact control for SMM control protein annotation, biochemical, small-molecule microarray, Alexa647 label, 635/667 nm fluorescence (AID 1117)
- measurementContext: alpha-BTX-A647 binding fluorescence, higher = more signal
Entries and their measured composite z-score follow.
// response body must contain only the number

CC(C)CON=C1C[C@@H](O)[C@@H](O)[C@@H]2[C@@H]3C(=O)N(C(C)(C)C)C(=O)[C@@H]3CC[C@H]12 has a reported composite z-score of 1.5

CO[C@@H]1COC(=O)CC=C[C@@H](C)[C@@H]2C=C[C@H](O)[C@@H](COC(=O)CC=C[C@H]1C)O2 has a reported composite z-score of 0.149

CC(C)=CCCC(C)=CCON=C1C[C@@H](O)[C@@H](O)[C@@H]2[C@@H]3C(=O)N(Cc4ccccc4)C(=O)[C@@H]3CC[C@H]12 has a reported composite z-score of 0.121

CO[C@H]1COC(=O)CC=C[C@H](C)[C@@H](OC)COC(=O)[C@@H](C)NC(=O)CC=C[C@@H]1C has a reported composite z-score of -0.352

====

- measurementNotes: small-molecule binders of probe aNOTCH3, primary screen, biochemical, small-molecule microarray, 635/667 nm fluorescence (AID 1120);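 note: probe is a biotin-tagged antibody raised against NOTCH3 rather than NOTCH3 protein; score merges spot fluorescence near 667 nm with spot signal to noise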
- measurementContext: higher = more signal
measuredProperty: composite z-score
// response body must contain only the number

Completed entries (count: 5):
COC(=O)CC=C[C@H](C)[C@@H](OCc1cccc(Br)c1)[C@@H](C)[C@H](OC)C1CCCCC1 | -0.0914
O=C1CCCC=C1C(O)CCCCBr (stereo not given) | 0.0242
CCc1cc2c(nc1CC)CCN(CCC(C)=NO[C@H](C)c1cn([C@@H]3COC[C@H]3O)nn1)C2 | -0.005
O=c1n(Cc2cc3c(cc2Cl)OCO3)c(=O)n2n1CC[C@@H]1C(=NOCc3ccccc3)[C@H]3O[C@H]3[C@@H](O)[C@@H]12 | 0.106
C[C@@H](c1ccccc1)N1C(=O)[C@H]2[C@H]3[C@H](O)[C@H](O)CC(=O)[C@H]3CC[C@H]2C1=O | -0.367

O=C(NN=C1C[C@@H](O)[C@@H](O)[C@@H]2[C@@H]3C(=O)N(C[C@@H]4CCCO4)C(=O)[C@@H]3CC[C@H]12)OCc1ccccc1 has a reported composite z-score of 0.0522

COC(=O)CC=C[C@@H](C)[C@@H](C=NO[C@@H]1O[C@H](COC(C)=O)[C@@H](OC(C)=O)[C@H](OC(C)=O)[C@H]1OC(C)=O)NS(=O)(=O)c1ccc(C)cc1 has a reported composite z-score of -0.0111

CCOC(=O)NN=C1C[C@@H](O)[C@@H](O)[C@@H]2[C@@H]3C(=O)N(c4ccc(F)cc4F)C(=O)[C@@H]3CC[C@@H]12 has a reported composite z-score of -0.144

CC(C)=CCCC(C)=CCON=C1C[C@@H](O)[C@@H](O)[C@@H]2[C@@H]3C(=O)N(Cc4ccccc4)C(=O)[C@@H]3CC[C@@H]12 has a reported composite z-score of -0.0395

CCOC(=O)[C@H](CC(C)C)NC(=O)CCC1CC(OC(=O)NCc2ccc3c(c2)OCO3)CC2(CCCC(COC(=O)NCCCN3CCCC3=O)O2)O1 (stereo not given in full) has a reported composite z-score of 0.0196

CC(C)[C@@H](OCc1ccccc1)[C@H](C)C=NOC[C@@H](O)COCc1ccco1 has a reported composite z-score of -0.819

COc1ccc(O[C@H]2C=C[C@@H](c3ccccc3)O[C@@H]2COC(=O)CCC(C)=NOC[C@@H](O)[C@H]2O[C@@H]3OC(C)(C)O[C@@H]3[C@H]2O)cc1 has a reported composite z-score of -0.0284

CCCCc1nc2c(c3c1C[C@H](C)OC3)CN(CCOc1ccccc1)CC2 has a reported composite z-score of 0.058

COc1cccc([C@H]2Oc3ccc(OC)cc3C(=NO[C@H](C)c3cn([C@H](CO)Cc4ccccc4)nn3)[C@@H]2O)c1 has a reported composite z-score of -0.208

CCOC(=O)C1=NO[C@]2(C=C(Br)C3(OCCCO3)[C@H]3O[C@H]32)C1 has a reported composite z-score of -0.239
